Values from patent US11603373B2

Could you please report measured pEC50 for the items listed next?
# subject-of-test: IDO1 (A172+IFNg cells, high IDO expressing cells) (Homo sapiens, UniProt P14902)
# Construct: A172+IFNg cells (high IDO expressing cells); endogenous in cells
# Sequence (P14902 whole entry): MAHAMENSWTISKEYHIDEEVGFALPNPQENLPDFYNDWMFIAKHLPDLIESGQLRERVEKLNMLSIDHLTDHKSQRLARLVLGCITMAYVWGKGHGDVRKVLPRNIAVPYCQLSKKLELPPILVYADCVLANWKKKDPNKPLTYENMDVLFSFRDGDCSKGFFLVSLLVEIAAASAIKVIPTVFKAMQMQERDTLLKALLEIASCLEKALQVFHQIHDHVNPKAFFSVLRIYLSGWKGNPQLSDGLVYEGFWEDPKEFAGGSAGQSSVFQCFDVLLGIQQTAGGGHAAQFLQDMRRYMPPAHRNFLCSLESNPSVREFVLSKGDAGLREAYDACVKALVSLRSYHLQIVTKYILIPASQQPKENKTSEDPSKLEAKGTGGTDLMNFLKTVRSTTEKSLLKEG
# assay-explanation: NFK GreenScreen cell assay, inhibition of IDO in A172+IFNg cells
# measurement-setup: read-out: IDO cell Fluor EC50
Scale: pEC50 equals -log10([C]), with [C] in mol/L.

Lab book: pEC50 of CC(=O)N(C)c1ccc(S(=O)(=O)N2CCC3(CC2)C[C@@H]([C@H]2c4ccccc4-c4cncn42)[C@H]3O)cc1 noted as 7.49

What the record says about O=C(C1CCOCC1)N1CCC2(CC1)C[C@@H]([C@H]1c3ccccc3-c3cncn31)[C@H]2O : pEC50 is 5.62

Looking up CS(=O)(=O)N1CCC2(CC1)C[C@@H]([C@@H]1c3ccccc3-c3cncn31)[C@@H]2O (single isomer, unassigned) , I see its pEC50 listed as 5.19

Record CC(C)(C)OC(=O)N1[C@@H]2CC[C@H]1C[C@]1(C[C@H]([C@@H]3c4ccccc4-c4cncn43)[C@H]1O)C2 (single isomer, unassigned) [Example 12g] . Reported pEC50: 5.33

Briefly, pEC50 measured for O=C(CN1CCCC1=O)N1CCC2(CC1)C[C@@H]([C@H]1c3ccccc3-c3cncn31)[C@H]2O : 5.41

Entry under test: CS(=O)(=O)N1CC2(CC(C3c4ccccc4-c4cncn43)C2O)C1 (stereo not shown) . Its pEC50 was 6.34

// pEC50 lookup, compound = NS(=O)(=O)N1CCC2(CC[C@H]([C@@H]3c4ccccc4-c4cncn43)[C@@H]2O)CC1 (single isomer, unassigned) , result: 6.96

* * *

Field: pEC50. Provide a value for each of the compounds that follow.
# subject-of-test: IDO1 (A172+IFNg cells, high IDO expressing cells) (Homo sapiens)
# Construct: A172+IFNg cells (high IDO expressing cells); endogenous in cells
# assay-explanation: NFK GreenScreen cell assay, inhibition of IDO in A172+IFNg cells
# measurement-setup: read-out: IDO cell Fluor EC50
Lab note: report pEC50 as minus log10 of the concentration in molar units, number only.

The measured pEC50 associated with CC(C)(C)OC(=O)N1CCC2(CC[C@H]([C@@H]3c4ccccc4-c4cncn43)[C@@H]2O)CC1 (single isomer, unassigned) [Example 2d] reads 5.80

Field pEC50 (entry NS(=O)(=O)N1CCC2(CC[C@@H]([C@H]3c4ccccc4-c4cncn43)[C@H]2O)CC1 (single isomer, unassigned) [Example 4c] ) reads 5.21

So, CC(C)(C)OC(=O)N1CC2(CC[C@H]([C@@H]3c4ccccc4-c4cncn43)[C@H]2O)C1 (single isomer, unassigned) [Example 3f] ? Its pEC50 was 6.77

Entry CC(C)(C)OC(=O)N[C@H]1CC[C@]2(CC1)C[C@H]([C@H]1c3ccccc3-c3cncn31)[C@@H]2O (single isomer, unassigned) [Example 24n] ; pEC50 = 6.62

Form: compound = CC(C)(C)OC(=O)N[C@H]1CC[C@@]2(CC1)C[C@H]([C@H]1c3ccccc3-c3cncn31)[C@@H]2O (single isomer, unassigned) [Example 24e] ; pEC50 = 5.00

get_value(item= Cc1cc(CC(=O)N2CCC3(CC2)CC(C2c4ccccc4-c4cncn42)C3O)on1 (stereo not drawn) [compound 63] , readout=pEC50) returns 6.80

* * *

# subject-of-test: IDO1 (A172+IFNg cells, high IDO expressing cells) (Homo sapiens, UniProt P14902)
# Construct: A172+IFNg cells (high IDO expressing cells); endogenous in cells
# assay-explanation: NFK GreenScreen cell assay, inhibition of IDO in A172+IFNg cells
# measurement-setup: read-out: IDO cell Fluor EC50
pEC50: −log10 of the molar value.
Assign T whenever pEC50 does not fall below 6; assign F whenever it does.

Incoming: Is the recorded value of pEC50 equal to or greater than 6 for this compound? CC(C)(C)OC(=O)N1[C@@H]2CC[C@H]1C[C@@]1(C[C@H]([C@H]3c4ccccc4-c4cncn43)[C@H]1O)C2 (single isomer, unassigned) [Example 12f]
Outgoing: F

Incoming: API: above_or_equal(metric=pEC50, cutoff=6) for item CC(C)(C)OC(=O)N1[C@@H]2CC[C@H]1C[C@]1(C[C@@H]([C@@H]3c4ccccc4-c4cncn43)[C@@H]1O)C2 (single isomer, unassigned) [Example 12e]
Outgoing: F

Incoming: Exam item: decide whether the reported pEC50 for COC(=O)N1CCC2(CC[C@H]([C@@H]3c4ccccc4-c4cncn43)[C@@H]2O)CC1 (single isomer, unassigned) is at least 6.
Outgoing: T

Incoming: Would you say NC(=O)N1CCCC(C(=O)N2CCC3(CC2)CC(C2c4ccccc4-c4cncn42)C3O)C1 (stereo not drawn) shows pEC50 at minimum 6?
Outgoing: F

Incoming: Assess whether reported pEC50 for Cc1nn(C)c(C)c1S(=O)(=O)N1CCC2(CC1)CC(C1c3ccccc3-c3cncn31)C2O (stereo not drawn) sits at 6 or higher.
Outgoing: T

Incoming: Could you please find out whether O=C(CCc1cccnc1)N1CCC2(CC1)CC(C1c3ccccc3-c3cncn31)C2O (stereo not drawn) has pEC50 that meets 6 or exceeds it?
Outgoing: T

* * *

# subject-of-test: IDO1 (A172+IFNg cells, high IDO expressing cells) (Homo sapiens)
# Construct: A172+IFNg cells (high IDO expressing cells); endogenous in cells
# assay-explanation: NFK GreenScreen cell assay, inhibition of IDO in A172+IFNg cells
# measurement-setup: read-out: IDO cell Fluor EC50
pEC50: −log10 of the molar value.
Mark t for reported pEC50 of 5 or greater; mark f for anything smaller.

Incoming: Does the reported pEC50 for O=C(C(F)F)N1CCC2(CC1)CC(C1c3ccccc3-c3cncn31)C2O (stereo not drawn) fall at or above the 5 mark?
Outgoing: t

Incoming: Reported pEC50 at or above 5? CC(C)(C)OC(=O)N1CC2(CC[C@H]([C@H]3c4ccccc4-c4cncn43)[C@@H]2O)C1 (single isomer, unassigned)
Outgoing: t

Incoming: Is reported pEC50 greater than or equal to 5 here: CC(C)(C)OC(=O)N1[C@@H]2CC[C@H]1C[C@]1(C[C@@H]([C@H]3c4ccccc4-c4cncn43)[C@H]1O)C2 (single isomer, unassigned) [Example 12j]
Outgoing: t

Incoming: Test whether the molecule COC(=O)N1CCC2(CC[C@@H]([C@H]3c4ccccc4-c4cncn43)[C@H]2O)CC1 (single isomer, unassigned) records pEC50 of 5 or higher.
Outgoing: f

Incoming: Record N#CCS(=O)(=O)N1CCC2(CC1)C[C@H]([C@@H]1c3ccccc3-c3cncn31)[C@@H]2O [Example 21c] ; criterion: pEC50 no lower than 5. Met?
Outgoing: t

Incoming: Please indicate if the recorded pEC50 for CC(C)(C)OC(=O)N1[C@@H]2CC[C@H]1C[C@@]1(C[C@@H]([C@H]3c4ccccc4-c4cncn43)[C@@H]1O)C2 (single isomer, unassigned) [Example 12h] meets or exceeds 5.
Outgoing: t

* * *

# subject-of-test: TDO2 (SW48 cells, high TDO expressing cells) (Homo sapiens, UniProt P48775)
# Construct: SW48 cells (high TDO expressing cells); endogenous in cells
# Sequence (P48775 whole entry): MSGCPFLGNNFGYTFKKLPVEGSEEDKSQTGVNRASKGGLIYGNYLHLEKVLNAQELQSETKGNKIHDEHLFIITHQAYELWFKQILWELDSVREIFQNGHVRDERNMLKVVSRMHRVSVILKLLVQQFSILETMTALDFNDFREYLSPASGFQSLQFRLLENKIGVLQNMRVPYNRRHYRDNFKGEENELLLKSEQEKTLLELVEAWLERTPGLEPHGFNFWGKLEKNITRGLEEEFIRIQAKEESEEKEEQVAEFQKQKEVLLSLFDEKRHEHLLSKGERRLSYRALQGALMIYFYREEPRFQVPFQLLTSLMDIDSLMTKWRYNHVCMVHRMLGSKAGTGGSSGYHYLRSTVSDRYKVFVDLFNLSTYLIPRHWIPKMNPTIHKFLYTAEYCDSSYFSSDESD
# assay-explanation: NFK GreenScreen cell assay, inhibition of TDO in SW48 cells
# measurement-setup: read-out: TDO2 Cell Fluor EC50
endpoint-label: pEC50
Remember the convention: pEC50 equals -log10 of concentration in molar.

With TDO2 (SW48 cells, high TDO expressing cells) (Homo sapiens, UniProt P48775) as the test system, O=C([C@@H]1CC1(F)F)N1CCC2(CC[C@@H]([C@H]3c4ccccc4-c4cncn43)[C@H]2O)CC1 (single isomer, unassigned) [Example 25a] showed pEC50 of 7.09

Form field pEC50 for item O=S1(=O)CCC2(CC[C@@H]([C@H]3c4ccccc4-c4cncn43)[C@H]2O)CC1 (relative stereo) [Example 13a] on TDO2 (SW48 cells, high TDO expressing cells) (Homo sapiens, UniProt P48775): 6.80

Form: item CC(C)(C)OC(=O)N1CC2CCC(C1)C21C[C@H]([C@H]2c3ccccc3-c3cncn32)[C@H]1O (some centres unmarked) [Example 22f] ; test system TDO2 (SW48 cells, high TDO expressing cells) (Homo sapiens, UniProt P48775); pEC50: 5.85

pEC50 on TDO2 (SW48 cells, high TDO expressing cells) (Homo sapiens, UniProt P48775) for O=C(CCc1cccnc1)N1CCC2(CC1)CC(C1c3ccccc3-c3cncn31)C2O (centres unmarked) is 6.08

For the compound O=C(c1cnn2c1OCCC2)N1CCC2(CC1)CC(C1c3ccccc3-c3cncn31)C2O (centres unmarked) , the measured pEC50 on TDO2 (SW48 cells, high TDO expressing cells) (Homo sapiens, UniProt P48775) was 5.64

Result for CC(C)(C)OC(=O)N1CCC2(CC[C@@H]([C@H]3c4ccccc4-c4cncn43)[C@H]2O)CC1 (single isomer, unassigned) , tested on TDO2 (SW48 cells, high TDO expressing cells) (Homo sapiens, UniProt P48775), pEC50: 6.97

pEC50 for TDO2 (SW48 cells, high TDO expressing cells) (Homo sapiens, UniProt P48775) with input NS(=O)(=O)N1CCC2(CC[C@H]([C@H]3c4ccccc4-c4cncn43)[C@H]2O)CC1 (single isomer, unassigned) equals 6.29

// pEC50 (TDO2 (SW48 cells, high TDO expressing cells) (Homo sapiens, UniProt P48775)) for CN1C(=O)Cc2cc(S(=O)(=O)N3CCC4(CC3)CC(C3c5ccccc5-c5cncn53)C4O)ccc21 (centres unmarked) = 5.96

TDO2 (SW48 cells, high TDO expressing cells) (Homo sapiens, UniProt P48775) assay, compound COC(=O)N1CCC2(CC[C@H]([C@@H]3c4ccccc4-c4cncn43)[C@@H]2O)CC1 (single isomer, unassigned) , recorded pEC50 = 7.00

Tested system TDO2 (SW48 cells, high TDO expressing cells) (Homo sapiens, UniProt P48775); pEC50 recorded for NS(=O)(=O)N1CCC2(CC1)C[C@@H]([C@H]1c3ccccc3-c3cncn31)[C@@H]2O (single isomer, unassigned) [Example 11d] was 5.52

Here N#CCS(=O)(=O)N1CCC2(CC1)C[C@@H]([C@H]1c3ccccc3-c3cncn31)[C@H]2O [Example 21b] was tested on TDO2 (SW48 cells, high TDO expressing cells) (Homo sapiens, UniProt P48775), and its pEC50 came to 7.00

Measured pEC50 (TDO2 (SW48 cells, high TDO expressing cells) (Homo sapiens, UniProt P48775)), entry NS(=O)(=O)N1CCC2(CC1)C[C@H]([C@H]1c3ccccc3-c3cncn31)[C@@H]2O (single isomer, unassigned) [Example 11f] : 6.74

With TDO2 (SW48 cells, high TDO expressing cells) (Homo sapiens, UniProt P48775) as the test system, CC(C)(C)OC(=O)N[C@H]1CC[C@]2(CC1)C[C@H]([C@H]1c3ccccc3-c3cncn31)[C@H]2O (single isomer, unassigned) [Example 24i] showed pEC50 of 6.59

Tested system TDO2 (SW48 cells, high TDO expressing cells) (Homo sapiens, UniProt P48775); pEC50 recorded for NS(=O)(=O)N1CCC2(CC[C@@H]([C@H]3c4ccccc4-c4cncn43)[C@H]2O)CC1 (single isomer, unassigned) was 5.34

TDO2 (SW48 cells, high TDO expressing cells) (Homo sapiens, UniProt P48775) pEC50 of CC(C)(C)OC(=O)N1CCC2(CC[C@H]([C@H]3c4ccccc4-c4cncn43)[C@H]2O)CC1 (single isomer, unassigned) is 6.62

So the reported pEC50 for CC(C)(C)OC(=O)N[C@H]1CC[C@@]2(CC1)C[C@@H]([C@H]1c3ccccc3-c3cncn31)[C@@H]2O (single isomer, unassigned) [Example 24b] , on TDO2 (SW48 cells, high TDO expressing cells) (Homo sapiens, UniProt P48775), turned out to be 5.68

Record CC(C)(C)OC(=O)N1CC2CCC(C1)C21C[C@H]([C@@H]2c3ccccc3-c3cncn32)[C@H]1O (some centres unmarked) [Example 22g] / TDO2 (SW48 cells, high TDO expressing cells) (Homo sapiens, UniProt P48775), pEC50 recorded as 6.80

Tested on TDO2 (SW48 cells, high TDO expressing cells) (Homo sapiens, UniProt P48775), the item O=C(OCC(F)F)N1CCC2(CC1)C[C@@H]([C@H]1c3ccccc3-c3cncn31)[C@H]2O showed pEC50 equal to 6.59

Lab note: compound CCC(=O)N1CCC2(CC1)CC(C1c3ccccc3-c3cncn31)C2O (centres unmarked) tested on TDO2 (SW48 cells, high TDO expressing cells) (Homo sapiens, UniProt P48775); recorded pEC50 was 6.28

// returns pEC50 for NS(=O)(=O)N1CCC2(CC1)C[C@@H]([C@@H]1c3ccccc3-c3cncn31)[C@@H]2O (single isomer, unassigned) [Example 11h] with TDO2 (SW48 cells, high TDO expressing cells) (Homo sapiens, UniProt P48775); value = 4.96

The measured pEC50 that CC(=O)N(C)c1ccc(S(=O)(=O)N2CCC3(CC2)C[C@@H]([C@H]2c4ccccc4-c4cncn42)[C@H]3O)cc1 showed for TDO2 (SW48 cells, high TDO expressing cells) (Homo sapiens, UniProt P48775) is 6.32

Tested on TDO2 (SW48 cells, high TDO expressing cells) (Homo sapiens, UniProt P48775), the item O=C([C@H]1CC1(F)F)N1CCC2(CC[C@@H]([C@H]3c4ccccc4-c4cncn43)[C@H]2O)CC1 (single isomer, unassigned) [Example 25b] showed pEC50 equal to 6.82

// compound CC(=O)N1CCC(C(=O)N2CCC3(CC2)C[C@@H]([C@H]2c4ccccc4-c4cncn42)[C@H]3O)CC1 , assay TDO2 (SW48 cells, high TDO expressing cells) (Homo sapiens, UniProt P48775), pEC50 value: 5.24

Entry CC(=O)N1CCC2(CC[C@@H]([C@H]3c4ccccc4-c4cncn43)[C@H]2O)CC1 (single isomer, unassigned) [Example 10a] under TDO2 (SW48 cells, high TDO expressing cells) (Homo sapiens, UniProt P48775) had pEC50 of 4.62

The compound CC(C)S(=O)(=O)N1CCC2(CC1)C[C@@H]([C@H]1c3ccccc3-c3cncn31)[C@H]2O , when measured on TDO2 (SW48 cells, high TDO expressing cells) (Homo sapiens, UniProt P48775), yielded pEC50 of 6.62

The reported pEC50 value, TDO2 (SW48 cells, high TDO expressing cells) (Homo sapiens, UniProt P48775), for O=C(C(F)F)N1CCC2(CC1)CC(C1c3ccccc3-c3cncn31)C2O (centres unmarked) reads 6.43
